Test: chemical genetic growth profiling, strain panel (AID 1159580);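 also: tested at 20 µM; growth read once vehicle control cultures reached saturation at 30 °C; 1 = growth at the plate median or of vehicle wells; lower values mean less growth of the strain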
Conditions: S. cerevisiae deletion strains, growth OD, locus YNL175C, strain NOP13
Screen size: about 5,500 compounds; about 2,000 (36%) were called active. Inconclusive results (about 18%) are left out. Rule as the data show it: active = normalized growth mostly below about 0.91 (no sharp cut-off); inconclusive = no clear call, values can overlap the other calls; inactive = mostly above about 0.92. This is one part of the list.
Hi there, use one of these labels in your reply, thanks! active, inactive

Below are worked cases with known answers.
compound=O=C(Nc1ccc([N+](=O)[O-])cc1Cl)c1cc(Cl)ccc1O assigned_class=active
compound=COC(=O)[C@H](NC(=O)c1cc(-c2ccccc2)nc2ccccc12)c1ccccc1 assigned_class=inactive
compound=O=Nc1c(-c2c(O)[nH]c3ccccc23)[nH]c2ccccc12 assigned_class=active
compound="COc1ccc2c(c1)C13CCCCC1C(C2)N(C)CC3 (configuration not stated)" assigned_class=inactive
compound=O=C(O)c1cccnc1C(=O)O assigned_class=inactive
compound=Cn1cc(C(=O)OCC2CCN(CCNS(C)(=O)=O)CC2)c2ccccc21 assigned_class=inactive
compound="O=C(c1ccccc1)c1ccc2n1CCC2C(=O)O (configuration not stated)" assigned_class=inactive
compound=CC(=O)N[C@H](C(=O)O)C(C)(C)SN=O assigned_class=inactive
compound="CN1C(=O)CCC1c1cccnc1 (configuration not stated)" assigned_class=inactive
compound=O=C(CCc1ccc(O)cc1)c1c(O)cc(O)cc1O assigned_class=inactive

Query: // param item: CCCn1cnc2c1c(=O)n(CCCCC(C)=O)c(=O)n2C ; yields the recorded call
Reply: inactive

Query: // param item: O=c1cc(-c2ccccc2)[nH]c2nc(Cl)ccc12 ; yields the recorded call
Reply: inactive

* * *

So I've got a bunch of compounds here, and I need their normalized growth values.
Test: chemical genetic growth profiling, strain panel (AID 1159580)
Details: S. cerevisiae deletion strains, growth OD, locus YAL021C, strain ccr4, hits give low values
Hit rate of the full screen: of about 5,500 compounds, about 2,000 (36%) were called active. About 18% were inconclusive and are not listed. Some of the results follow.
Numbers only.

compound=CC(C)N1C(=O)c2ccccc2NS1(=O)=O quantitative_result=0.947

I need normalized growth for every entry listed below, if you could help.
1. O=C1C=CC(=O)c2ccccc21
2. C=C[C@H]1CN2CC[C@H]1C[C@H]2[C@H](O)c1ccnc2ccccc12
3. CCCc1ncc(C[n+]2ccccc2C)c(N)n1
4. O=C(O)c1cccnc1C(=O)O
5. O=C1NS(=O)(=O)c2ccccc21
6. O=C(N[C@@H](CO)[C@H](O)c1ccc([N+](=O)[O-])cc1)C(Cl)Cl

Reply:
0.0676
1
0.94
1.02
0.965
1.01

I need normalized growth for every entry listed below, if you could help.
1. CN1CCN(C2=Nc3cc(Cl)ccc3Nc3ccccc32)CC1
2. CCCCCCCCCCCCCCCC(=O)OC[C@H](NC(=O)C(Cl)Cl)[C@H](O)c1ccc([N+](=O)[O-])cc1
3. O=C(O)CC[N+](=O)[O-]

Reply:
[0.991, 0.986, 0.987]

I need normalized growth for every entry listed below, if you could help.
1. CC(=O)OCC1=C(C(=O)O)N2C(=O)[C@@H](NC(=O)CSc3ccncc3)[C@H]2SC1
2. COc1cc2c(cc1OC)C(C)NCC2 (configuration not stated)

Reply:
1: 1.02; 2: 0.967

* * *

Experiment: chemical genetic growth profiling, strain panel (AID 1159580)
Settings: S. cerevisiae deletion strains, growth OD, locus YIR030C, strain dcg1, hits give low values
The campaign covered roughly 5,500 compounds. About 2,000 (36%) were called active. Inconclusive results (about 18%) are left out. This is one part of the list.
So I've got a bunch of molecules here, and I need their normalized growth values.
Answers are plain numbers.

I need normalized growth for every entry listed below, if you could help.
1. CC(C)OC(=O)Nc1cccc(Cl)c1
2. COC1=CC23CCCN2CCc2cc4c(cc2C3C1O)OCO4 (stereo not given)
3. COC(=O)C[C@H]1C(C)(C)[C@H](O)[C@@H]2CC3=C4CC(O)O[C@@H](c5ccoc5)[C@]4(C)CCC3[C@@]1(C)C2=O (stereo not given in full)
4. Cc1ccc(O)c(C(CCN(C(C)C)C(C)C)c2ccccc2)c1 (stereo not given)
5. O=C(O)c1cc(=O)c2ccccc2[nH]1
6. CC1=C(C(=O)O)N2C(=O)[C@@H](NC(=O)[C@@H](N)c3ccc(O)cc3)[C@H]2SC1

Reply:
[0.981, 1.01, 0.99, 0.993, 0.983, 0.982]

* * *

Test: chemical genetic growth profiling, strain panel (AID 1159580);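 also: tested at 20 µM; growth read once vehicle control cultures reached saturation at 30 °C; 1 = growth at the plate median or of vehicle wells; lower values mean less growth of the strain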
Conditions: S. cerevisiae deletion strains, growth OD, locus YBL061C, strain skt5, hits give low values
In all, about 5,500 compounds went through this assay and about 2,000 (36%) were called active. Not shown: some 18% with an inconclusive outcome. The list shows a part of the results.
Endpoint: normalized growth
Give bare numbers.

Examples with their reported normalized growth follow.
compound="O=C(c1ccccc1)c1ccc2n1CCC2C(=O)O (stereo not drawn)" quantitative_result=1.01
compound=O=C(N[C@@H](CO)[C@H](O)c1ccc([N+](=O)[O-])cc1)C(Cl)Cl quantitative_result=0.995
compound="C=C(C)C1Cc2c(ccc3c(=O)c4c(oc23)COc2cc(OC)c(OC)cc2-4)O1 (stereo not drawn)" quantitative_result=0.999
compound="CC(=O)Oc1c(C)c(C)c2c(c1C)CCC(C)(CCCC(C)CCCC(C)CCCC(C)C)O2 (stereo not drawn)" quantitative_result=0.995
compound="O=C(O)C1=C(CSc2nnnn2CS(=O)(=O)O)CS[C@@H]2C(NC(=O)[C@H](O)c3ccccc3)C(=O)N12 (stereo partly drawn)" quantitative_result=0.989

I need normalized growth for every entry listed below, if you could help.
1. COC(=O)CC1C(C)(C(=O)c2ccoc2)CC2OCC34C(CC(=O)OC)C5(C)CC36OC3(C)OC1(C(OC(C)=O)C6(OC(C)=O)C5OC(=O)C(C)C)C24O3 (stereo not drawn)
2. CCCCCCCCCCCCCCCC(=O)OC[C@H](NC(=O)C(Cl)Cl)[C@H](O)c1ccc([N+](=O)[O-])cc1

Reply:
0.978
1.02

Query: # lookup: normalized growth of CO/N=C(/C(=O)NC1C(=O)N2C(C(=O)OCOC(=O)C(C)(C)C)=C(/C=C\c3scnc3C)CSC12)c1csc(N)n1 (stereo not drawn)
Reply: 1

* * *

Test: chemical genetic growth profiling, strain panel (AID 1159580);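 also: tested at 20 µM; growth read once vehicle control cultures reached saturation at 30 °C; 1 = growth at the plate median or of vehicle wells; lower values mean less growth of the strain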
Conditions: S. cerevisiae deletion strains, growth OD, locus YJL187C, strain SWE1 (second series), hits give low values
Among all 5,500 compounds or so, about 2,000 (36%) were called active. Not shown: some 18% with an inconclusive outcome. This is one part of the list.
Endpoint: normalized growth
Numbers only.

molecule=COC(=O)c1cc(OC)c(=O)c2c(OC)c(OC)ccc2c1 endpoint="normalized growth" quantitative_result=1.02

I need normalized growth for every entry listed below, if you could help.
1. CCC[C@@H]1C[C@@H](C(=O)N[C@H]([C@H]2O[C@H](SC)[C@H](O)[C@@H](O)[C@H]2O)[C@H](C)O)N(C)C1
2. COC(=O)CC1C(C)(C)C(=O)C2CC3(O)C4=CC(=O)OC(c5ccoc5)C4(C)CCC3C1(C)C2=O (configuration not stated)
3. COC1=CC23CCCN2CCc2cc4c(cc2C3C1O)OCO4 (configuration not stated)

Reply:
[0.984, 1, 1]

I need normalized growth for every entry listed below, if you could help.
1. CC(C)Cn1c(=O)n(C)c(=O)c2[nH]cnc21
2. CC(NC(C)(C)C)C(=O)c1cccc(Cl)c1 (configuration not stated)
3. COc1cc(O)c2c(c1)C(=O)c1cc(C)cc(O)c1C2=O
4. CC(C)OC(=O)Nc1cccc(Cl)c1
5. COc1cc2cccc(OC)c(=O)c2c(OC)c1OC

Reply:
1. 0.998
2. 1.02
3. 1
4. 0.99
5. 0.996

* * *

So I've got a bunch of molecules here, and I need their normalized growth values.
Experiment: chemical genetic growth profiling, strain panel (AID 1159580);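 also: tested at 20 µM; growth read once vehicle control cultures reached saturation at 30 °C; 1 = growth at the plate median or of vehicle wells; lower values mean less growth of the strain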
Conditions: S. cerevisiae deletion strains, growth OD, locus YLR058C, strain SHM2, hits give low values
Among all 5,500 compounds or so, about 2,000 (36%) were called active. Roughly 18% stayed inconclusive and do not appear here. This is one part of the list.
Give bare numbers.

Examples with their reported normalized growth follow.
molecule=COc1cc(Cc2cnc(N)nc2N)cc(OC)c1OC quantitative_result=1
molecule="COC(=O)CC1C(C)(C)C(=O)C2CC3(O)C4=CC(=O)OC(c5ccoc5)C4(C)CCC3C1(C)C2=O (stereo unspecified)" quantitative_result=1
molecule=COc1cc(O)c2c(c1)C(=O)c1cc(C)cc(O)c1C2=O quantitative_result=1
molecule="COC(=O)C(O)[C@H]1C(C)(C)[C@@H](OC(C)=O)[C@@H]2CC3=C4CC(=O)O[C@@H](c5ccoc5)[C@]4(C)CCC3[C@@]1(C)C2=O (stereo partly specified)" quantitative_result=0.99
molecule=Cc1cc(O)c2c(c1)C(=O)c1cc(O)cc(O)c1C2=O quantitative_result=0.834

API: the following record is the query input.
Query: # lookup: normalized growth of O=C(O)c1cc(=O)c2ccccc2[nH]1
Reply: 0.972
